tested.on: B-Raf(V599E) kinase (Homo sapiens, UniProt P15056, V600E)
Sequence (P15056 with tags, fused parts or gaps V600E): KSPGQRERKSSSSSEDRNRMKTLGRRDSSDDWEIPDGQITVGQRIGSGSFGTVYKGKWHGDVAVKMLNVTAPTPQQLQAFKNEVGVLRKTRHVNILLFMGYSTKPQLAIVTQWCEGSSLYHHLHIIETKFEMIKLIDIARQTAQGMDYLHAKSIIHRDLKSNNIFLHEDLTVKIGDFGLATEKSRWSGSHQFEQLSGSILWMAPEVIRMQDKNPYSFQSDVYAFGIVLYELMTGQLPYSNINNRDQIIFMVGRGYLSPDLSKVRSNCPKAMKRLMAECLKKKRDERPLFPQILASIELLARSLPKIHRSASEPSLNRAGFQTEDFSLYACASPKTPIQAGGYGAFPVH
assay.protocol: B-Raf(V599E) kinase assay B1 (construct 1, MEK1 substrate, coupled spectrophotometric)
Assay type: biochemical
Record form. Attribute: IC50. Fill in for each entry.

GET /values?readout=IC50&item= CC(C)(C)c1cc(NC(=O)Nc2cccc(F)c2F)n(-c2ccc3c(c2)CCNC3)n1
9.6 nM

Follow-up entry: CC(C)(C)c1cc(NC(=O)Nc2cccc(Cl)c2Cl)n(-c2ccc3c(c2)C[C@@H](C(=O)O)NC3)n1
9.2 nM

Follow-up entry: CC(C)(C)c1cc(NC(=O)Nc2cccc(Cl)c2Cl)n(-c2cccc(CC(=O)N3CC[C@@H](O)C3)c2)n1
9 nM

Follow-up entry: CC(C)(C)c1cc(NC(=O)Nc2ccc(F)cc2F)n(-c2ccc3ncccc3c2)n1
8.5 nM
